Target: TrkA receptor (Homo sapiens)
Sequence (P04629 33-796): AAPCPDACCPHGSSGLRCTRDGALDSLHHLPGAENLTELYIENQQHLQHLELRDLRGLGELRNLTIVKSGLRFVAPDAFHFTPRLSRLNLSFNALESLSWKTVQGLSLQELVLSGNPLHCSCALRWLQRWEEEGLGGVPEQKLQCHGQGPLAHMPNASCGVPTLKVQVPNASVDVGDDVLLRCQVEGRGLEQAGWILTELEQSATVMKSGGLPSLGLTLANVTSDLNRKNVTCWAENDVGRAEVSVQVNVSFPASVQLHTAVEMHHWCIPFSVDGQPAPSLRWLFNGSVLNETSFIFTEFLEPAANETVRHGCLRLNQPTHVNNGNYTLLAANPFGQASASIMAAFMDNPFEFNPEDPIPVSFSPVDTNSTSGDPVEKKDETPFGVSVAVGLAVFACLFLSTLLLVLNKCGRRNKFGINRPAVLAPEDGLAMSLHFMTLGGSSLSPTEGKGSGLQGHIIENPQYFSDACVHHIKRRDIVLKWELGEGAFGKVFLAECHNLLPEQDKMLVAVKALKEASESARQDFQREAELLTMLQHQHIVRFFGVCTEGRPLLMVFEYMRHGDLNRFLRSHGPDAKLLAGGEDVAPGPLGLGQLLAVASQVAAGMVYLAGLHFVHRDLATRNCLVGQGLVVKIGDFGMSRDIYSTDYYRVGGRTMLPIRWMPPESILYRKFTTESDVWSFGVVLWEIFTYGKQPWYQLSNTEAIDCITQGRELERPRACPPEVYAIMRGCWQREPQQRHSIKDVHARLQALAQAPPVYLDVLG
Test: DiscoverX PathHunter TrkA functional assay (NGF-stimulated U2OS cells)
Details: U2OS cells expressing TrkA-Prolink fusion and Shc1-EA; compound 1 hour, then EC80 NGF 3 hours; luminescence
pIC50: −log10 of the molar value.

{"Structure string": "Cc1ncc(NC(=O)NC2c3ccccc3-c3ccccc32)c(-c2ccccc2)n1", "Target desc": "TrkA receptor (Homo sapiens)", "pIC50": 7.09}
{"Structure string": "COc1ccc(-c2cc(NC(=O)NC3c4ccccc4-c4ccccc43)n(-c3ccccc3)n2)cc1", "Target desc": "TrkA receptor (Homo sapiens)", "pIC50": 6.26}
{"Structure string": "O=C(Nc1cccnc1C1CCCCC1)NC1c2ccccc2-c2ccccc21", "Target desc": "TrkA receptor (Homo sapiens)", "pIC50": 6.70}
{"Structure string": "Cn1ncnc1-c1cccc(NC(=O)NC2c3ccccc3-c3ccccc32)c1", "Target desc": "TrkA receptor (Homo sapiens)", "pIC50": 7.14}
{"Structure string": "Cc1ccc(NC(=O)NC2c3ccccc3-c3ccccc32)cn1", "Target desc": "TrkA receptor (Homo sapiens)", "pIC50": 5.60}
{"Structure string": "Cc1nc(-c2ccccc2)c(NC(=O)NC2c3ccccc3-c3ccccc32)s1", "Target desc": "TrkA receptor (Homo sapiens)", "pIC50": 6.85}
{"Structure string": "Cc1ccccc1-c1ncccc1NC(=O)NC1c2ccccc2-c2ccccc21", "Target desc": "TrkA receptor (Homo sapiens)", "pIC50": 5.92}
{"Structure string": "Cn1nc(-c2ccccc2)cc1NC(=O)NC1c2ccccc2-c2ccccc21", "Target desc": "TrkA receptor (Homo sapiens)", "pIC50": 6.39}
{"Structure string": "O=C(Nc1cccnc1-c1ccoc1)NC1c2ccccc2-c2ccccc21", "Target desc": "TrkA receptor (Homo sapiens)", "pIC50": 6.41}
{"Structure string": "Cc1cc(-c2ccc(F)cc2)c(NC(=O)NC2c3ccccc3-c3ccccc32)cn1", "Target desc": "TrkA receptor (Homo sapiens)", "pIC50": 6.32}
{"Structure string": "Cc1nnc(-c2cccc(NC(=O)NC3c4ccccc4-c4ccccc43)c2)s1", "Target desc": "TrkA receptor (Homo sapiens)", "pIC50": 6.01}
{"Structure string": "O=C(Nc1cccnc1-c1ccnc(F)c1)NC1c2ccccc2-c2ccccc21", "Target desc": "TrkA receptor (Homo sapiens)", "pIC50": 6.27}
{"Structure string": "Cc1nc(-c2cccc(NC(=O)NC3c4ccccc4-c4ccccc43)c2)oc1C", "Target desc": "TrkA receptor (Homo sapiens)", "pIC50": 6.51}
{"Structure string": "Cc1ncc(NC(=O)NC2c3ccccc3-c3ccccc32)c(-c2ccc(F)cc2)n1", "Target desc": "TrkA receptor (Homo sapiens)", "pIC50": 6.82}
{"Structure string": "Cc1nnc(-c2cccc(NC(=O)NC3c4ccccc4-c4ccccc43)c2)o1", "Target desc": "TrkA receptor (Homo sapiens)", "pIC50": 6.18}
{"Structure string": "O=C(Nc1ccnn1-c1ccccc1)NC1c2ccccc2-c2ccccc21", "Target desc": "TrkA receptor (Homo sapiens)", "pIC50": 6.92}
{"Structure string": "O=C(Nc1c(-c2ccncc2)nc2ccccn12)NC1c2ccccc2-c2ccccc21", "Target desc": "TrkA receptor (Homo sapiens)", "pIC50": 6.11}
{"Structure string": "Cn1nccc1-c1cncc(NC(=O)NC2c3ccccc3-c3ccccc32)c1", "Target desc": "TrkA receptor (Homo sapiens)", "pIC50": 5.55}

The origin of these recorded values is patent US9718782B2.
